- assaySystem: S. aureus SPase (Staphylococcus aureus, UniProt P0A070)
- Sequence (P0A070 whole entry): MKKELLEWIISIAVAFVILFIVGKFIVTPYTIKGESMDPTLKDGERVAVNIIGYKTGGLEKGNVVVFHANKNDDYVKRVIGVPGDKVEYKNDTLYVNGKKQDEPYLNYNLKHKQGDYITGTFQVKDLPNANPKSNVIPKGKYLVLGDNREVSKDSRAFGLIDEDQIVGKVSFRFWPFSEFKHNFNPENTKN
- procedureDetails: biochemical
pIC50: −log10 of the molar value. Square brackets hold non-standard residues; d marks the D form. Peptide text beside a SMILES is read from it. * marks the point of attachment. Biphenylcarbonyl(4'-Bu) = CCCCc1ccc(-c2ccc(C(=O)*)cc2)cc1; X11 = CC[C@H](N*)B1OC2C[C@@H]3C[C@@H](C3(C)C)[C@]2(C)O1; X1 = C[C@H](N*)B1OC2C[C@@H]3C[C@@H](C3(C)C)[C@]2(C)O1; Benzoyl(4-(4-Cl-Ph)) = O=C(c1ccc(-c2ccc(Cl)cc2)cc1)*; NMeT = CN[C@H](C(=O)O)[C@@H](C)O; boroAla = C[C@H](N*)B(O)O; Dap = NC[C@H](N)C(=O)O; βAla = NCCC(=O)O
# pIC50 per record follows
endpoint: pIC50

• C[C@H](NC(=O)[C@H](CCCCN)NC(=O)[C@H](C)NC(=O)[C@H](CCCCN)NC(=O)[C@H](CN)NC(=O)c1ccc(-c2ccc(Cl)cc2)cc1)B1OC2C[C@@H]3C[C@@H](C3(C)C)[C@]2(C)O1 (stereo partly shown) [Compound 168] ({Benzoyl(4-(4-Cl-Ph))}-[Dap]KAK-X1) = 6.60
• CC(C)C[C@H](NC(=O)[C@H](C)NC(=O)[C@H](CCCCN)NC(=O)[C@H](CCCCN)NC(=O)c1ccc(-c2ccc(Cl)cc2)cc1)C(=O)N[C@@H](C)B(O)O [Compound 155] ({Benzoyl(4-(4-Cl-Ph))}-KKAL-boroAla) = 6.60
• CCCCc1ccc(-c2ccc(C(=O)NCCC(=O)N[C@@H](CCCCN)C(=O)N3CCC[C@H]3C(=O)N[C@@H](C)C(=O)N[C@@H](CCCCN)C(=O)N[C@@H](C)B3OC4C[C@@H]5C[C@@H](C5(C)C)[C@]4(C)O3)cc2)cc1 (stereo partly shown) [Compound 214] ({Biphenylcarbonyl(4'-Bu)-βAla}-KPAK-X1) = 7.77
• CCCCc1ccc(-c2ccc(C(=O)NCCC(=O)N[C@@H](CCCCN)C(=O)N[C@H](C(=O)N[C@@H](C)C(=O)N[C@@H](CC(N)=O)C(=O)N[C@@H](CC)B3OC4C[C@@H]5C[C@@H](C5(C)C)[C@]4(C)O3)[C@@H](C)O)cc2)cc1 (stereo partly shown) [Compound 203] ({Biphenylcarbonyl(4'-Bu)-βAla}-KTAN-X11) = 7.68
• CCCCc1ccc(-c2ccc(C(=O)NCCC(=O)N[C@@H](CCCCN)C(=O)N(C)[C@H](C(=O)N[C@@H](C)C(=O)N[C@@H](CC(N)=O)C(=O)N[C@@H](C)B3OC4C[C@@H]5C[C@@H](C5(C)C)[C@]4(C)O3)[C@@H](C)O)cc2)cc1 (stereo partly shown) [Compound 192] ({Biphenylcarbonyl(4'-Bu)-βAla}-K[NMeT]AN-X1) = 7.92
• CCCCc1ccc(-c2ccc(C(=O)N[C@@H](Cc3c[nH]c4ccccc34)C(=O)N[C@H](C(=O)N[C@@H](C)C(=O)N[C@@H](CCCCN)C(=O)N[C@@H](C)B3OC4C[C@@H]5C[C@@H](C5(C)C)[C@]4(C)O3)[C@@H](C)O)cc2)cc1 (stereo partly shown) [Compound 138] ({Biphenylcarbonyl(4'-Bu)}-WTAK-X1) = 5.96
• CCCCc1ccc(-c2ccc(OC(=O)N[C@@H](CCCCN)C(=O)N[C@H](C(=O)N[C@@H](C)C(=O)N[C@@H](CC(N)=O)C(=O)N[C@@H](C)B3OC4C[C@@H]5C[C@@H](C5(C)C)[C@]4(C)O3)[C@@H](C)O)cc2)cc1 (stereo partly shown) = 7.82
